- measurementDescription: Kinetic aqueous solubility of the compound in PBS at pH 7.4 by turbidimetric analysis
- Format: physicochemical
- runParameters: read-out: Kinetic_solubility
measurementKind: solubility kinetic (µM)
Give a bare numeral; the unit µM is implied.

Check out these entries, answers already filled in.
>>> reportedmeasurement("O=C(N/N=C/c1ccc(-c2ccc([N+](=O)[O-])cc2)o1)c1cnc[nH]1")
580
>>> reportedmeasurement("O=C1CN(/N=C/c2ccc(-c3ccc([N+](=O)[O-])cc3)o2)C(O)=N1")
560
>>> reportedmeasurement("O=C(N/N=C/c1ccc(-c2ccc([N+](=O)[O-])cc2)o1)Nc1ccccc1")
60

Note to self: solubility kinetic recorded for CN(/N=C/c1ccc(-c2ccc([N+](=O)[O-])cc2)o1)C(=O)c1cncn1C was 480

---

- Species on record: Homo sapiens
- measurementDescription: Inhibition of RYR-1 R614C mutant (unknown origin) expressed in cells assessed as inhibition of store overload-induced Ca2+ release after 3 mins by microscopic analysis
- Assay type: cell-based
- runParameters: dose microM 0.1-10, time 3.0 min
measurementKind: inhibition

Check out these entries, answers already filled in.
>>> reportedmeasurement("O=C(N/N=C/c1ccc(-c2ccc([N+](=O)[O-])cc2)o1)Nc1ccccc1C(F)(F)F")
"Dose-dependent effect"
>>> reportedmeasurement("Cc1ccc(NC(=O)N/N=C/c2ccc(-c3ccc([N+](=O)[O-])cc3)o2)cc1")
"Dose-dependent effect"
>>> reportedmeasurement("O=C1CN(/N=C/c2ccc(-c3ccc([N+](=O)[O-])cc3)o2)C(=O)N1")
"Dose-dependent effect"
>>> reportedmeasurement("O=C(NCc1cccc(F)c1)N/N=C/c1ccc(-c2ccc([N+](=O)[O-])cc2)o1")
"Dose-dependent effect"
>>> reportedmeasurement("O=C(NCc1ccc(Cl)cc1)N/N=C/c1ccc(-c2ccc([N+](=O)[O-])cc2)o1")
"Dose-dependent effect"
>>> reportedmeasurement("COc1ccccc1NC(=O)N/N=C/c1ccc(-c2ccc([N+](=O)[O-])cc2)o1")
"Dose-dependent effect"

Note to self: inhibition recorded for CN(/N=C/c1ccc(-c2ccc([N+](=O)[O-])cc2)o1)C(=O)n1ccnc1 was Dose-dependent effect

Note to self: inhibition recorded for CN(/N=C/c1ccc(-c2ccc([N+](=O)[O-])cc2)o1)C(=O)c1cncn1C was Dose-dependent effect

Note to self: inhibition recorded for O=C(N/N=C/c1ccc(-c2ccc([N+](=O)[O-])cc2)o1)Nc1ccccc1Cl was Dose-dependent effect

---

- Species on record: Homo sapiens
- measurementDescription: Inhibition of RYR-1 R614C mutant (unknown origin) expressed in cells assessed as inhibition of store overload-induced Ca2+ release after 3 mins by microscopic analysis
- Format: cell-based
- runParameters: dose microM 0.1-10, time 3.0 min
measurementKind: inhibition

Check out these entries, answers already filled in.
>>> reportedmeasurement("O=C(NCc1ccc(Cl)c(Cl)c1)N/N=C/c1ccc(-c2ccc([N+](=O)[O-])cc2)o1")
"Dose-dependent effect"
>>> reportedmeasurement("O=C(N/N=C/c1ccc(-c2ccc([N+](=O)[O-])cc2)o1)Nc1ccc([N+](=O)[O-])cc1")
"Dose-dependent effect"
>>> reportedmeasurement("O=C(N/N=C/c1ccc(-c2ccc([N+](=O)[O-])cc2)o1)Nc1ccc(Br)cc1")
"Dose-dependent effect"
>>> reportedmeasurement("O=C(N/N=C/c1ccc(-c2ccc([N+](=O)[O-])cc2)o1)Nc1ccccc1")
"Dose-dependent effect"
>>> reportedmeasurement("O=C(NCc1ccccc1)N/N=C/c1ccc(-c2ccc([N+](=O)[O-])cc2)o1")
"Dose-dependent effect"
>>> reportedmeasurement("O=C(NCc1ccc(F)cc1)N/N=C/c1ccc(-c2ccc([N+](=O)[O-])cc2)o1")
"Dose-dependent effect"

Note to self: inhibition recorded for O=C(N/N=C/c1ccc(-c2ccc([N+](=O)[O-])cc2)o1)Nc1cccc(Br)c1 was Dose-dependent effect

Note to self: inhibition recorded for O=C(N/N=C/c1ccc(-c2ccc([N+](=O)[O-])cc2)o1)c1cnc[nH]1 was Dose-dependent effect

Note to self: inhibition recorded for O=C(NCc1ccc(Cl)cc1Cl)N/N=C/c1ccc(-c2ccc([N+](=O)[O-])cc2)o1 was Dose-dependent effect

---

- testedSystem: Acetylcholinesterase (Electrophorus electricus) (UniProt O42275)
- Sequence (O42275 24-633 limits assumed): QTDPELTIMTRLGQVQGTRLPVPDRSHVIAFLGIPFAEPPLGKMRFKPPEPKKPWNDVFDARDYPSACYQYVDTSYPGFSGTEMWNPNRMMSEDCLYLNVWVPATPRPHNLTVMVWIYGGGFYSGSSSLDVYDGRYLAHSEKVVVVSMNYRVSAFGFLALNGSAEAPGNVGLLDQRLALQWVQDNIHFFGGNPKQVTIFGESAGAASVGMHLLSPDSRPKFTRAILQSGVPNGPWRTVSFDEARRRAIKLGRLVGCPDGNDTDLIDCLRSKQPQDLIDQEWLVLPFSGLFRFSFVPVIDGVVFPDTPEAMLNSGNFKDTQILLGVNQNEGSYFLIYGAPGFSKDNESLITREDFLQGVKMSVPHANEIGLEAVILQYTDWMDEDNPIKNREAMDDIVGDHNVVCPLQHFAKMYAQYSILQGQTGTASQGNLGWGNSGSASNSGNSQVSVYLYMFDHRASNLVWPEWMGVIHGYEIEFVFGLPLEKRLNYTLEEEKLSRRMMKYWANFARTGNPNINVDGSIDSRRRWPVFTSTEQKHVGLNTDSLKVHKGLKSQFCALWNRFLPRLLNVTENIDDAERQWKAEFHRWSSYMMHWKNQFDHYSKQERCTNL
- measurementDescription: Inhibition of electric eel AChE at 5 uM using acetylthiocholine iodide as substrate preincubated with enzyme for 30 mins followed by substrate addition and measured for 10 mins by Ellman's method relative to control
- runParameters: time 40.0 min
# reported inhibition; entries follow
Give a bare numeral; the unit % is implied.

>>> reportedmeasurement("O=C(N/N=C/c1ccc(-c2ccc([N+](=O)[O-])cc2)o1)Nc1ccccc1")
19.3
>>> reportedmeasurement("O=C(N/N=C/c1ccc(-c2ccc([N+](=O)[O-])cc2)o1)c1cnc[nH]1")
24.8
>>> reportedmeasurement("Cc1ccccc1NC(=O)N/N=C/c1ccc(-c2ccc([N+](=O)[O-])cc2)o1")
18.2
>>> reportedmeasurement("CN(/N=C/c1ccc(-c2ccc([N+](=O)[O-])cc2)o1)C(=O)c1cncn1C")
14.3
>>> reportedmeasurement("O=C(NCc1cccc(F)c1)N/N=C/c1ccc(-c2ccc([N+](=O)[O-])cc2)o1")
33.6
>>> reportedmeasurement("O=C1CN(/N=C/c2ccc(-c3ccc([N+](=O)[O-])cc3)o2)C(=O)N1")
0.1

Now consider a different compound.
Note to self: inhibition recorded for O=C(NCc1ccc(Cl)cc1Cl)N/N=C/c1ccc(-c2ccc([N+](=O)[O-])cc2)o1 was 8.9
